Source: ChEMBL document CHEMBL1122176

Items are presented alongside their recorded K.
assay: The efflux rate constant of the compound; format: ADME
Write the number in min⁻¹ without appending the unit.

INPUT: Which K is reported for this compound? CN(Cc1cnc2nc(N)nc(N)c2n1)c1ccc(C(=O)N[C@@H](CCC(=O)O)C(=O)O)cc1 [METHOTREXATE]
OUTPUT: 0.19

INPUT: Look up K for this compound: CC(Cc1cnc2nc(N)nc(N)c2n1)c1ccc(C(=O)NC(CCC(=O)O)C(=O)O)cc1 (stereo unspecified)
OUTPUT: 0.23

INPUT: Consider the compound shown here: CCC(Cc1cnc2nc(N)nc(N)c2n1)c1ccc(C(=O)NC(CCC(=O)O)C(=O)O)cc1 (stereo unspecified) What is its recorded K?
OUTPUT: 0.2

INPUT: Which value of K has been reported for Nc1nc(N)c2nc(CCc3ccc(C(=O)N[C@@H](CCC(=O)O)C(=O)O)cc3)cnc2n1 in the records?
OUTPUT: 0.23

INPUT: Sample CC(C)(Cc1cnc2nc(N)nc(N)c2n1)c1ccc(C(=O)NC(CCC(=O)O)C(=O)O)cc1 (stereo unspecified) — what was its K?
OUTPUT: 0.24

INPUT: # get_value(readout='K', item= Nc1nc(N)c2nc(CNc3ccc(C(=O)N[C@@H](CCC(=O)O)C(=O)O)cc3)cnc2n1 )
OUTPUT: 0.21
